- system: human NK3 receptor (Homo sapiens, UniProt P29371)
- Sequence (P29371 1-465): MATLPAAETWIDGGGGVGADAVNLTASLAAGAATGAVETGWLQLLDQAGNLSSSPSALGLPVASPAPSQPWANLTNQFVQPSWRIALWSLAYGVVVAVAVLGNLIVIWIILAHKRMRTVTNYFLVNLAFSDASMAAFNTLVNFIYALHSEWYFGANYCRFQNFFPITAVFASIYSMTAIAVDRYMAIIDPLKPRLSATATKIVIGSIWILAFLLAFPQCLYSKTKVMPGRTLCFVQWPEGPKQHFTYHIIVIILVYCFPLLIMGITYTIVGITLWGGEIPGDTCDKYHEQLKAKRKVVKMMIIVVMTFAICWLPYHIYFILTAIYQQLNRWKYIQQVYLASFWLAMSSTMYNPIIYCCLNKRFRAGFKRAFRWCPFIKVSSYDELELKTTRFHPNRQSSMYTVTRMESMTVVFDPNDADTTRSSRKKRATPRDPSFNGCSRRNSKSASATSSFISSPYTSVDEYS
pKi: −log10 of the molar value.
attribute-measured: pKi

> print(dat)
                                   compound  observed.result
1  Cl.O=C1CCC(CCN2CCC(O)(c3ccccc3)CC2)(c2ccc(Cl)c(Cl)c2)CN1Cc1ccccc1 (centres unmarked) [compound A, hydrochloride]             9.00
2  CN(CC(CCCN1CCC(O)(c2ccccc2)CC1)c1ccc(Cl)c(Cl)c1)C(=O)c1ccccc1.Cl (centres unmarked) [Example 1, hydrochloride]             8.30

* * *

- system: UniProt:P14600
- Sequence (P14600 whole entry): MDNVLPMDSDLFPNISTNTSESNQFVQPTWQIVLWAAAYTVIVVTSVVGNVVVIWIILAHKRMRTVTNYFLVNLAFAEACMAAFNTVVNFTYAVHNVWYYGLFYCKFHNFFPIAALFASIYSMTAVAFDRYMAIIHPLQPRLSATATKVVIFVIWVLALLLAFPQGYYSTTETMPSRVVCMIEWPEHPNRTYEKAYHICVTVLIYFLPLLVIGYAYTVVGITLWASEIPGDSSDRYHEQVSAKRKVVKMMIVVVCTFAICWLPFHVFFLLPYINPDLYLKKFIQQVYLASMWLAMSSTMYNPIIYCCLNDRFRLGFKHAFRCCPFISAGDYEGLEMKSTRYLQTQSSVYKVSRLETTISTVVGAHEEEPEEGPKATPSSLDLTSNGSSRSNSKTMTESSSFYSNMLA
pKi: −log10 of the molar value.
attribute-measured: pKi

> print(dat)
                                   compound  observed.result
1  CN(CC(CCCN1CCC(O)(c2ccccc2)CC1)c1ccc(Cl)c(Cl)c1)C(=O)c1ccccc1.Cl (stereo not shown) [Example 1, hydrochloride]             6.30
